Ref: paper PMC11862990

test system: BJ1 (normal skin fibroblast); conditions: 100 μg ml^−1, 48 hours, MTT
Answer each item with its documented (%) Mortality BJ1 (cytotoxicity percentage on normal cells).
Quick note: give the figure in %, leave out the unit.

Problem: Supply reported (%) Mortality BJ1 (cytotoxicity percentage on normal cells) belonging to this molecule: `Cc1nn2c(-c3cccs3)nn(-c3ccc([N+](=O)[O-])cc3)c2nc1=O`
Result: 3.8

Problem: Please list (%) Mortality BJ1 (cytotoxicity percentage on normal cells) recorded for the molecule `Cc1nn2c(C(C)C)nn(-c3ccc([N+](=O)[O-])cc3)c2nc1=O`
Result: 36.2

Problem: Return reported (%) Mortality BJ1 (cytotoxicity percentage on normal cells). Input molecule: `Cc1nn2c(-c3ccco3)nn(-c3ccc([N+](=O)[O-])cc3)c2nc1=O`
Result: 2.9

Problem: Complete the entry with (%) Mortality BJ1 (cytotoxicity percentage on normal cells) for `Cc1nn2c(-c3ccc(Cl)cc3)nn(-c3ccccc3)c2nc1=O`
Result: 9.6

Problem: Tell me (%) Mortality BJ1 (cytotoxicity percentage on normal cells) reported for `CCCc1nn(-c2ccc([N+](=O)[O-])cc2)c2nc(=O)c(C)nn12`
Result: 1.6

Problem: Let me know recorded (%) Mortality BJ1 (cytotoxicity percentage on normal cells) for `CCc1nn(-c2ccc([N+](=O)[O-])cc2)c2nc(=O)c(C)nn12` , thanks.
Result: 4.2
